Provide the reported pIC50 of each item.
# System: MDA-MB-231
# assayComment: Antiproliferative activity against human MDA-MB-231 cells by MTT assay
# Format: functional, cell-based
On this scale, pIC50 is minus log10 of a concentration expressed in M (mol/L).

Query block: # lookup: MDA-MB-231 pIC50, key = COC(=O)c1ccc(-n2nc(N)c(C(=O)NCCNC(=O)c3nn(-c4ccc(C(=O)OC)cc4)nc3N)n2)cc1
Result block: 4.92

Query block: # lookup: MDA-MB-231 pIC50, key = CN(C)CCOc1ccc(/C(=C(/CCCl)c2ccccc2)c2ccccc2)cc1 [TOREMIFENE]
Result block: 4.89

Query block: # lookup: MDA-MB-231 pIC50, key = Cc1ccc(-n2nc(N)c(C(=O)NCCNC(=O)c3nn(-c4ccc(C)cc4)nc3N)n2)cc1
Result block: 5.15

Query block: # lookup: MDA-MB-231 pIC50, key = Cc1c(C(=O)Nc2ccccc2)nnn1-c1ccnc2cc(Cl)ccc12
Result block: 4.72

Query block: # lookup: MDA-MB-231 pIC50, key = CC/C(=C(\c1ccccc1)c1ccc(OCCN(C)C)cc1)c1ccccc1 [TAMOXIFEN]
Result block: 4.95

// data source = ChEMBL document CHEMBL4342418
